TEST_TARGET: Botulinum neurotoxin type A (Clostridium botulinum) (UniProt P0DPI0)
Sequence (P0DPI0 2-448 limits assumed): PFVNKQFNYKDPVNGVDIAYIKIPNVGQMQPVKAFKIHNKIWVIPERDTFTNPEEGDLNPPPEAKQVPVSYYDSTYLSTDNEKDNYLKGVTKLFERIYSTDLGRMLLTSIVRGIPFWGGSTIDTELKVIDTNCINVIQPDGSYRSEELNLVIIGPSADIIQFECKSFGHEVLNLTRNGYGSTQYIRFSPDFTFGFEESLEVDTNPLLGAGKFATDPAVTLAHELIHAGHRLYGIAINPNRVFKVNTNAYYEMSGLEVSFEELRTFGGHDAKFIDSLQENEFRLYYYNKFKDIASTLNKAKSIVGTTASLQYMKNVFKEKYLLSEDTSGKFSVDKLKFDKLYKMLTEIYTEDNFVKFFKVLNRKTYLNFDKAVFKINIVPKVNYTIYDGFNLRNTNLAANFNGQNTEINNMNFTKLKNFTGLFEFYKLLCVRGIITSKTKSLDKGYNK
TEST_METHOD_NOTES: Inhibition of Clostridium botulinum recombinant BoNT/A light chain using N-terminal acetylated, C-terminal aminated SNAP-25 (187-203) as substrate at 20 uM by reverse-phase HPLC analysis
Known inhibition of a selection of compounds

INSERT INTO measurements (structure_smiles_string, result) VALUES
  ('CC(=O)O[C@H]1C[C@H]2[C@@H]([C@H](OC(C)=O)C[C@@H]3C[C@H](N)CC[C@@]32C)[C@@H]2CC[C@H]([C@H](C)CCCN(C)CCCNc3ccnc4cc(Cl)ccc34)[C@@]12C', '81.4%');

Asked: Fill in the blank: the reported inhibition of "CC(=O)O[C@@H]1CC[C@@]2(C)[C@@H](C1)C[C@@H](OC(C)=O)[C@@H]1[C@@H]2C[C@H](OC(C)=O)[C@]2(C)[C@@H]([C@H](C)CCCNCCCCCCNc3ccnc4cc(Cl)ccc34)CC[C@@H]12" is ____.
Given back: 83.3%

Asked: // repeat for "CC(=O)O[C@H]1C[C@H]2[C@@H]([C@H](OC(C)=O)C[C@@H]3C[C@H](N(C)C)CC[C@@]32C)[C@@H]2CC[C@H]([C@H](C)CCCNCCCNc3ccnc4cc(Cl)ccc34)[C@@]12C" and report
Given back: 92.6%

----------
Known pIC50 of a selection of molecules
System: HepG2
TEST_METHOD_NOTES: Cytotoxicity against human HepG2 cells assessed as cell viability after 48 hrs by MTT assay
Type: cell-based
RUN_CONDITIONS: HepG2, 48 h
Reminder that pIC50 means the negative base-10 logarithm of the concentration expressed in mol/L.

INSERT INTO results (structure_smiles_string, quantitative_result) VALUES
  ('CC(=O)O[C@H]1C[C@H]2[C@@H]([C@H](OC(C)=O)C[C@@H]3CC(=O)CC[C@@]32C)[C@@H]2CC[C@H]([C@H](C)CCCNCCNc3ccnc4cc(Cl)ccc34)[C@@]12C', 5.71),
  ('CC(=O)O[C@H]1C[C@H]2[C@@H]([C@H](OC(C)=O)C[C@@H]3C[C@H](O)CC[C@@]32C)[C@@H]2CC[C@H]([C@H](C)CCCNCCCCNc3ccnc4cc(Cl)ccc34)[C@@]12C', 5.80),
  ('CC(=O)O[C@H]1C[C@H]2[C@@H]([C@H](OC(C)=O)C[C@@H]3C[C@H](NS(C)(=O)=O)CC[C@@]32C)[C@@H]2CC[C@H]([C@H](C)CCCNCCNc3ccnc4cc(Cl)ccc34)[C@@]12C', 5.23);

Asked: Fill in the blank: the reported pIC50 of "CC(=O)O[C@H]1C[C@H]2[C@@H]([C@H](OC(C)=O)C[C@@H]3C[C@H](NC(=O)OC(C)(C)C)CC[C@@]32C)[C@@H]2CC[C@H]([C@H](C)CCCN(C)CCNc3ccnc4cc(Cl)ccc34)[C@@]12C" is ____.
Given back: 5.63

----------
TEST_TARGET: Botulinum neurotoxin type A (Clostridium botulinum)
TEST_METHOD_NOTES: Inhibition of Clostridium botulinum recombinant BoNT/A light chain using N-terminal acetylated, C-terminal aminated SNAP-25 (187-203) as substrate by reverse-phase HPLC analysis
Known IC50 of a selection of compounds
# number only, unit µM dropped from output

Record excerpt, results attached:
INSERT INTO assay_data (structure_smiles_string, quantity_kind, quantitative_result) VALUES
  ('CC(=O)O[C@H]1C[C@H]2[C@@H]([C@H](OC(C)=O)C[C@@H]3C[C@H](NC(=O)OC(C)(C)C)CC[C@@]32C)[C@@H]2CC[C@H]([C@H](C)CCCN(C)CCCNc3ccnc4cc(Cl)ccc34)[C@@]12C', 'IC50', 6.62),
  ('Clc1ccc2c(NCCNC34CC5CC(CC(C5)C3)C4)ccnc2c1', 'IC50', 11.8),
  ('CC(=O)O[C@H]1C[C@H]2[C@@H]([C@H](OC(C)=O)C[C@@H]3CC(=O)CC[C@@]32C)[C@@H]2CC[C@H]([C@H](C)CCCNCCCNc3ccnc4cc(Cl)ccc34)[C@@]12C', 'IC50', 2.32),
  ('CC(=O)O[C@H]1C[C@H]2[C@@H]([C@H](OC(C)=O)C[C@@H]3CC(=O)CC[C@@]32C)[C@@H]2CC[C@H]([C@H](C)CCCNCCNc3ccnc4cc(Cl)ccc34)[C@@]12C', 'IC50', 5.7),
  ('CC(=O)O[C@H]1C[C@H]2[C@@H]([C@H](OC(C)=O)C[C@@H]3C[C@H](NS(C)(=O)=O)CC[C@@]32C)[C@@H]2CC[C@H]([C@H](C)CCCN(C)CCCNc3ccnc4cc(Cl)ccc34)[C@@]12C', 'IC50', 8.21);

Asked: Fill in the blank: the reported IC50 of "CC(=O)O[C@@H]1CC[C@@]2(C)[C@@H](C1)C[C@@H](OC(C)=O)[C@@H]1[C@@H]2C[C@H](OC(C)=O)[C@]2(C)[C@@H]([C@H](C)CCCNCCCNc3ccnc4cc(Cl)ccc34)CC[C@@H]12" is ____.
Given back: 2.28

Asked: // repeat for "CC(=O)O[C@H]1C[C@H]2[C@@H]([C@H](OC(C)=O)C[C@@H]3C[C@H](N)CC[C@@]32C)[C@@H]2CC[C@H]([C@H](C)CCCN(CCCNc3ccnc4cc(Cl)ccc34)CCC[C@@H](C)[C@H]3CC[C@H]4[C@@H]5[C@H](OC(C)=O)C[C@@H]6C[C@H](N)CC[C@]6(C)[C@H]5C[C@H](OC(C)=O)[C@]34C)[C@@]12C" and report
Given back: 0.63

Asked: // repeat for "CC(=O)O[C@H]1C[C@H]2[C@@H]([C@H](OC(C)=O)C[C@@H]3C[C@H](NC(=O)OC(C)(C)C)CC[C@@]32C)[C@@H]2CC[C@H]([C@H](C)CCCN(C)CCNc3ccnc4cc(Cl)ccc34)[C@@]12C" and report
Given back: 6.78

Asked: // repeat for "CC(=O)O[C@@H]1CC[C@@]2(C)[C@@H](C1)C[C@@H](OC(C)=O)[C@@H]1[C@@H]2C[C@H](OC(C)=O)[C@]2(C)[C@@H]([C@H](C)CCCNCCNc3ccnc4cc(Cl)ccc34)CC[C@@H]12" and report
Given back: 3.8

Asked: // repeat for "CC(=O)O[C@H]1C[C@H]2[C@@H]([C@H](OC(C)=O)C[C@@H]3C[C@H](N)CC[C@@]32C)[C@@H]2CC[C@H]([C@H](C)CCCNCCNc3ccnc4cc(Cl)ccc34)[C@@]12C" and report
Given back: 0.81

Asked: // repeat for "CC(=O)N[C@@H]1CC[C@@]2(C)[C@@H](C1)C[C@@H](OC(C)=O)[C@@H]1[C@@H]2C[C@H](OC(C)=O)[C@]2(C)[C@@H]([C@H](C)CCCNCCCNc3ccnc4cc(Cl)ccc34)CC[C@@H]12" and report
Given back: 4.92
